I'd be grateful if you could share measured kinase still bound, per cent of control for these entries.
# System: MST4 (human)
# Protocol Description: KINOMEscan competition binding
# Experimental Setup: compound 10.0 µM
Numbers only, in %.

Observe how each entry below is paired with its result.
Cc1cn(-c2cc(C(=O)Nc3ccc(C)c(NC(=O)c4ccno4)c3)cc(C(F)(F)F)c2)cn1
100
COc1cc(C)c(Sc2cnc(NC(=O)c3ccc(CNC(C)C(C)C)cc3)s2)cc1C(=O)N1CCN(C(C)=O)CC1 (centres undefined)
100

Give measured kinase still bound, per cent of control for every item shown.
1. COc1cc2c(Nc3ccc(NC(=O)c4ccccc4)cc3)ncnc2cc1OCCCN1CCOCC1
2. N#Cc1cc(-c2ccnc(Nc3ccc(-n4cnc(-c5cccnc5)n4)cc3)n2)cc(N2CCOCC2)c1
3. CCCS(=O)(=O)Nc1ccc(F)c(C(=O)c2c[nH]c3ncc(Cl)cc23)c1F
4. CNC(=O)Nc1ccc(-c2nc(N3CC4CCC(C3)O4)c3cnn(C4CCC5(CC4)OCCO5)c3n2)cc1
5. CCN(CCO)CCCOc1ccc2c(Nc3cc(CC(=O)Nc4cccc(F)c4)[nH]n3)ncnc2c1
6. N#C/C(=C1/Nc2ccccc2S1)c1ccnc(NCCc2cccnc2)n1
7. CC1=C(C(=O)Nc2cc3cn[nH]c3cc2F)C(c2ccc(C(F)(F)F)cc2)CC(=O)N1 (centres undefined)

Response:
[44, 62, 96, 70, 37, 100, 24]

###

# System: PAK3 (human)
# Protocol Description: KINOMEscan competition binding
# Experimental Setup: compound 10.0 µM
Quantity Kind: kinase still bound, per cent of control (%)
One number for each entry, in %.

N#Cc1cc(-c2ccnc(Nc3ccc(-n4cnc(-c5cccnc5)n4)cc3)n2)cc(N2CCOCC2)c1
100
Cc1cn(-c2cc(C(=O)Nc3ccc(C)c(NC(=O)c4ccno4)c3)cc(C(F)(F)F)c2)cn1
100
C=CC(=O)Nc1ccc(C(=O)c2sc(Nc3ccc(N4CCN(C)CC4)cc3OC)nc2N)cc1
100
CNC(=O)Nc1ccc(-c2nc(N3CC4CCC(C3)O4)c3cnn(C4CCC5(CC4)OCCO5)c3n2)cc1
99

Give measured kinase still bound, per cent of control for every item shown.
1. CC(=O)c1c(C)c2cnc(Nc3ccc(N4CCNCC4)cn3)nc2n(C2CCCC2)c1=O
2. COc1cc2ncnc(Nc3cccc(Cl)c3)c2cc1OC
3. CCc1nc(-c2cccc(C)c2)c(-c2ccnc(NC(=O)c3ccccc3)c2)s1
4. COc1cc2c(Nc3ccc(NC(=O)c4ccccc4)cc3)ncnc2cc1OCCCN1CCOCC1
5. COc1cc(N2CCC(C(N)=O)CC2)ccc1Nc1nc(N)c(Cl)c(Nc2ccccc2S(=O)(=O)C(C)C)n1

Response:
1. 20
2. 25
3. 82
4. 87
5. 100

Give measured kinase still bound, per cent of control for every item shown.
1. CCN(CCO)CCCOc1ccc2c(Nc3cc(CC(=O)Nc4cccc(F)c4)[nH]n3)ncnc2c1
2. O=c1[nH]c2ccccc2n1C1CCN(Cc2ccc(-c3nc4cc5[nH]cnc5cc4nc3-c3ccccc3)cc2)CC1
3. CCOc1cc(N2CCC(O)CC2)ccc1Nc1ncc2c(n1)N(C)c1ccccc1C(=O)N2C
4. N#C/C(=C1/Nc2ccccc2S1)c1ccnc(NCCc2cccnc2)n1
5. COc1ccc(N(C(=O)Oc2cc(C(=O)Nc3cccc(C(F)(F)F)c3)ccc2C)c2ccnc(Nc3ccc(N4CCN(C)CC4)cc3)n2)c(OC)c1
6. COc1cc(C)c(Sc2cnc(NC(=O)c3ccc(CNC(C)C(C)C)cc3)s2)cc1C(=O)N1CCN(C(C)=O)CC1 (stereo not drawn)
7. CC1=C(C(=O)Nc2cc3cn[nH]c3cc2F)C(c2ccc(C(F)(F)F)cc2)CC(=O)N1 (stereo not drawn)

Response:
1. 57
2. 72
3. 100
4. 100
5. 11
6. 100
7. 36

Give measured kinase still bound, per cent of control for every item shown.
1. CCN1CCN(Cc2ccc(NC(=O)c3ccc(C)c(/C=C/c4cnc5[nH]ccc5c4OC)c3)cc2C(F)(F)F)CC1
2. CCCS(=O)(=O)Nc1ccc(F)c(C(=O)c2c[nH]c3ncc(Cl)cc23)c1F

Response:
1. 6
2. 34

###

# System: MAPK9 (human)
# Protocol Description: KINOMEscan competition binding
# Experimental Setup: compound 10.0 µM
Quantity Kind: kinase still bound, per cent of control

Observe how each entry below is paired with its result.
C=CC(=O)Nc1ccc(C(=O)c2sc(Nc3ccc(N4CCN(C)CC4)cc3OC)nc2N)cc1
7%
COc1cc2c(Nc3ccc(NC(=O)c4ccccc4)cc3)ncnc2cc1OCCCN1CCOCC1
27%
COc1ccc(N(C(=O)Oc2cc(C(=O)Nc3cccc(C(F)(F)F)c3)ccc2C)c2ccnc(Nc3ccc(N4CCN(C)CC4)cc3)n2)c(OC)c1
19%
CCN(CCO)CCCOc1ccc2c(Nc3cc(CC(=O)Nc4cccc(F)c4)[nH]n3)ncnc2c1
46%
CC(=O)c1c(C)c2cnc(Nc3ccc(N4CCNCC4)cn3)nc2n(C2CCCC2)c1=O
0.5%

Give measured kinase still bound, per cent of control for every item shown.
1. CCN1CCN(Cc2ccc(NC(=O)c3ccc(C)c(/C=C/c4cnc5[nH]ccc5c4OC)c3)cc2C(F)(F)F)CC1
2. N#C/C(=C1/Nc2ccccc2S1)c1ccnc(NCCc2cccnc2)n1

Response:
1: 0.1%; 2: 0.25%

Give measured kinase still bound, per cent of control for every item shown.
1. CC1=C(C(=O)Nc2cc3cn[nH]c3cc2F)C(c2ccc(C(F)(F)F)cc2)CC(=O)N1 (centres undefined)
2. O=c1[nH]c2ccccc2n1C1CCN(Cc2ccc(-c3nc4cc5[nH]cnc5cc4nc3-c3ccccc3)cc2)CC1

Response:
1. 92%
2. 91%

###

I'd be grateful if you could share measured kinase still bound, per cent of control for these entries.
# System: STK36 (human) (UniProt Q9NRP7)
# Sequence (Q9NRP7 whole entry, looked up): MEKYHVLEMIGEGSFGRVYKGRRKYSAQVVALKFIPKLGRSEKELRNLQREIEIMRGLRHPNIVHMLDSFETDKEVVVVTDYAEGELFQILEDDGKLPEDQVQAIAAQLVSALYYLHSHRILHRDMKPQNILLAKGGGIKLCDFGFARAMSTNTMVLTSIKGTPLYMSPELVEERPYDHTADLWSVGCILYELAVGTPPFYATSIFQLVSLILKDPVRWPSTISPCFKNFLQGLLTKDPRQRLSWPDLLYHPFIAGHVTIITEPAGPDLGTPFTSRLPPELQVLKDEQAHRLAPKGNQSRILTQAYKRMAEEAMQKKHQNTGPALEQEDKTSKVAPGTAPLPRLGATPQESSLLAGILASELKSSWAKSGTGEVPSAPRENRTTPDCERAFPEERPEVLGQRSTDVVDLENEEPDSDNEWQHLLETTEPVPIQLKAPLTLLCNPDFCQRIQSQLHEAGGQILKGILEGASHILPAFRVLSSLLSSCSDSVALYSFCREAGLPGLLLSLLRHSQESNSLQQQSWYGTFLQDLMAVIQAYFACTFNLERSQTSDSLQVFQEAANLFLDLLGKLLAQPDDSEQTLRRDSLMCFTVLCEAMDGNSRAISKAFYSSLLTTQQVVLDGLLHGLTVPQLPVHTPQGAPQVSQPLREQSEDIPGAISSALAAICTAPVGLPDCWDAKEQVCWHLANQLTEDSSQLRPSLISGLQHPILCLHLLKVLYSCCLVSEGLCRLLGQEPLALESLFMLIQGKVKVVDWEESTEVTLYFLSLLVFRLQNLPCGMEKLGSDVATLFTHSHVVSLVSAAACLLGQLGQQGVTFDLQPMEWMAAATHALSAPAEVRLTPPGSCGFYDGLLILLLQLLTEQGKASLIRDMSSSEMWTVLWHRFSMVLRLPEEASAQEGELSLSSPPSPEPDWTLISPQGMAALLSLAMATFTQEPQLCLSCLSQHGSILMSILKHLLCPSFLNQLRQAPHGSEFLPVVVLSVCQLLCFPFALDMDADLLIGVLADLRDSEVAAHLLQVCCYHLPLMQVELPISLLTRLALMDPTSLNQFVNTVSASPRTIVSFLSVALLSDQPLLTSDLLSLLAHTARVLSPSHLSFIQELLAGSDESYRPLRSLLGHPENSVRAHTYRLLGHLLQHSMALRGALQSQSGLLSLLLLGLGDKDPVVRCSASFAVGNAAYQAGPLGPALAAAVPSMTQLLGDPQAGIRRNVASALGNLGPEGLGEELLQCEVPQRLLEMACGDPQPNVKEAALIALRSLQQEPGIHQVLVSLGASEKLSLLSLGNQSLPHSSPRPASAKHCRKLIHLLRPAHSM
# Protocol Description: KINOMEscan competition binding
# Experimental Setup: compound 10.0 µM
Param answer (str): number followed by unit.

O=c1[nH]c2ccccc2n1C1CCN(Cc2ccc(-c3nc4cc5[nH]cnc5cc4nc3-c3ccccc3)cc2)CC1
74%
CCc1nc(-c2cccc(C)c2)c(-c2ccnc(NC(=O)c3ccccc3)c2)s1
4.8%
COc1ccc(N(C(=O)Oc2cc(C(=O)Nc3cccc(C(F)(F)F)c3)ccc2C)c2ccnc(Nc3ccc(N4CCN(C)CC4)cc3)n2)c(OC)c1
1.2%
COc1cc2ncnc(Nc3cccc(Cl)c3)c2cc1OC
54%

Prompt: Any idea what its kinase still bound, per cent of control is? The molecule is COc1cc(C)c(Sc2cnc(NC(=O)c3ccc(CNC(C)C(C)C)cc3)s2)cc1C(=O)N1CCN(C(C)=O)CC1 (stereo not given)
Response: 100%

###

# System: CDK4 CCND1 (human) (UniProt P11802+P24385)
# Sequence (P11802 whole entry, looked up): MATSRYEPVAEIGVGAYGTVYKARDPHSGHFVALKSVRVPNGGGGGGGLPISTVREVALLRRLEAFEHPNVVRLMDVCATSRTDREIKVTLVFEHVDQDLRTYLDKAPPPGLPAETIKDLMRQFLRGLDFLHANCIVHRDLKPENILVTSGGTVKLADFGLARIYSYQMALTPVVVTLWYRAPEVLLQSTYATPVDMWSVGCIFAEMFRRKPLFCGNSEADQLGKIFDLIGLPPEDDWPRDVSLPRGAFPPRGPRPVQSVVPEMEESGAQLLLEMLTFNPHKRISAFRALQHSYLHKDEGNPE
# Sequence (P24385 whole entry, looked up): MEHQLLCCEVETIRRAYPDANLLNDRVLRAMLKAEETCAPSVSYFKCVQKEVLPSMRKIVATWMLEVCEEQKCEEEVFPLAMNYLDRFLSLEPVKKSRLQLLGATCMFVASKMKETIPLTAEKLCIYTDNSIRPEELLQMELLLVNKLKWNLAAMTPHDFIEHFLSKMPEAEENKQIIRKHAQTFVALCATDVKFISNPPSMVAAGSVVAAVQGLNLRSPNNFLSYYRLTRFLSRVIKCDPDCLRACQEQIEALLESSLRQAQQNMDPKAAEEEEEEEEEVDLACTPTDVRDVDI
# Protocol Description: KINOMEscan competition binding
# Experimental Setup: compound 10.0 µM
Kindly apply the following: yes (1) if kinase still bound, per cent of control is less than 80%, no (0) in every other case.

Examples with answers:
CCc1nc(-c2cccc(C)c2)c(-c2ccnc(NC(=O)c3ccccc3)c2)s1
no (0)
CC1=C(C(=O)Nc2cc3cn[nH]c3cc2F)C(c2ccc(C(F)(F)F)cc2)CC(=O)N1 (stereo not given)
yes (1)
CCN1CCN(Cc2ccc(NC(=O)c3ccc(C)c(/C=C/c4cnc5[nH]ccc5c4OC)c3)cc2C(F)(F)F)CC1
yes (1)
CCN(CCO)CCCOc1ccc2c(Nc3cc(CC(=O)Nc4cccc(F)c4)[nH]n3)ncnc2c1
no (0)

Okay, now this compound:
Prompt: Item CC(=O)c1c(C)c2cnc(Nc3ccc(N4CCNCC4)cn3)nc2n(C2CCCC2)c1=O : kinase still bound, per cent of control beneath 80%, strictly?
Response: yes (1)

###

I'd be grateful if you could share measured kinase still bound, per cent of control for these entries.
# System: YSK4 (human)
# Protocol Description: KINOMEscan competition binding
# Experimental Setup: compound 10.0 µM
Answers are plain numbers, in %.

Observe how each entry below is paired with its result.
N#C/C(=C1/Nc2ccccc2S1)c1ccnc(NCCc2cccnc2)n1
3.2
CC1=C(C(=O)Nc2cc3cn[nH]c3cc2F)C(c2ccc(C(F)(F)F)cc2)CC(=O)N1 (stereo not given)
50
CCOc1cc(N2CCC(O)CC2)ccc1Nc1ncc2c(n1)N(C)c1ccccc1C(=O)N2C
100
CNC(=O)Nc1ccc(-c2nc(N3CC4CCC(C3)O4)c3cnn(C4CCC5(CC4)OCCO5)c3n2)cc1
100

Here is the next item to consider.
Prompt: Any idea what its kinase still bound, per cent of control is? The molecule is CCc1nc(-c2cccc(C)c2)c(-c2ccnc(NC(=O)c3ccccc3)c2)s1
Response: 64

###

# System: PRKD2 (human) (UniProt Q9BZL6)
# Sequence (Q9BZL6 whole entry, looked up): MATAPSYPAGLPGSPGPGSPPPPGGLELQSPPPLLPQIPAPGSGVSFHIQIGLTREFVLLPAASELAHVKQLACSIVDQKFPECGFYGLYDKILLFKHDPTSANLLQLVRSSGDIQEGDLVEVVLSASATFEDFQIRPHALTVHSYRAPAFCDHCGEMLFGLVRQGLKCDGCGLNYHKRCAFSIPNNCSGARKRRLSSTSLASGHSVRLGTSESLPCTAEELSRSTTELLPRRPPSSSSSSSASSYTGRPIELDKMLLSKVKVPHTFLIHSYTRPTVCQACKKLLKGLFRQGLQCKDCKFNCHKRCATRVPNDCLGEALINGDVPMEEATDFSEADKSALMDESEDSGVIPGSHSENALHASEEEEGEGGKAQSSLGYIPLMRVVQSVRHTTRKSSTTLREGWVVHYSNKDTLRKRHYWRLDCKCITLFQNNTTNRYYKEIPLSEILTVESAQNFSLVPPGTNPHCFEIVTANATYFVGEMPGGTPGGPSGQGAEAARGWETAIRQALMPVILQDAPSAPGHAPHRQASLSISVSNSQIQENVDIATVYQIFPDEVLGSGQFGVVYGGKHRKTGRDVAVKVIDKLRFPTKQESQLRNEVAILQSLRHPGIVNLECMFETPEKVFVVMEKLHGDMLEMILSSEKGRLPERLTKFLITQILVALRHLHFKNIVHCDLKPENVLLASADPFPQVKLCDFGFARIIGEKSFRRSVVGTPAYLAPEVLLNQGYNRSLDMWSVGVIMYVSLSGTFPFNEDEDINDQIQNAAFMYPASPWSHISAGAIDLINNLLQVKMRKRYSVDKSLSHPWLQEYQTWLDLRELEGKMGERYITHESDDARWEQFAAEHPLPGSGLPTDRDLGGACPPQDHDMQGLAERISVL
# Protocol Description: KINOMEscan competition binding
# Experimental Setup: compound 10.0 µM
Quantity Kind: kinase still bound, per cent of control (%)
Give bare numbers, in %.

Observe how each entry below is paired with its result.
CCOc1cc(N2CCC(O)CC2)ccc1Nc1ncc2c(n1)N(C)c1ccccc1C(=O)N2C
100
CC1=C(C(=O)Nc2cc3cn[nH]c3cc2F)C(c2ccc(C(F)(F)F)cc2)CC(=O)N1 (stereo not drawn)
76
CCN1CCN(Cc2ccc(NC(=O)c3ccc(C)c(/C=C/c4cnc5[nH]ccc5c4OC)c3)cc2C(F)(F)F)CC1
50

Give measured kinase still bound, per cent of control for every item shown.
1. COc1cc(C)c(Sc2cnc(NC(=O)c3ccc(CNC(C)C(C)C)cc3)s2)cc1C(=O)N1CCN(C(C)=O)CC1 (stereo not drawn)
2. N#C/C(=C1/Nc2ccccc2S1)c1ccnc(NCCc2cccnc2)n1
3. O=c1[nH]c2ccccc2n1C1CCN(Cc2ccc(-c3nc4cc5[nH]cnc5cc4nc3-c3ccccc3)cc2)CC1
4. CNC(=O)Nc1ccc(-c2nc(N3CC4CCC(C3)O4)c3cnn(C4CCC5(CC4)OCCO5)c3n2)cc1
5. COc1cc2ncnc(Nc3cccc(Cl)c3)c2cc1OC

Response:
1. 100
2. 100
3. 95
4. 100
5. 86

Give measured kinase still bound, per cent of control for every item shown.
1. COc1cc(N2CCC(C(N)=O)CC2)ccc1Nc1nc(N)c(Cl)c(Nc2ccccc2S(=O)(=O)C(C)C)n1
2. CCc1nc(-c2cccc(C)c2)c(-c2ccnc(NC(=O)c3ccccc3)c2)s1
3. COc1ccc(N(C(=O)Oc2cc(C(=O)Nc3cccc(C(F)(F)F)c3)ccc2C)c2ccnc(Nc3ccc(N4CCN(C)CC4)cc3)n2)c(OC)c1
4. C=CC(=O)Nc1ccc(C(=O)c2sc(Nc3ccc(N4CCN(C)CC4)cc3OC)nc2N)cc1
5. CCCS(=O)(=O)Nc1ccc(F)c(C(=O)c2c[nH]c3ncc(Cl)cc23)c1F

Response:
100
46
100
70
100
